target: Phosphofructokinase (PFK), purified from rabbit skeletal muscle (Oryctolagus cuniculus); assay: radiometric assay of purified PFK ([γ-32P]ATP); supported by intrinsic fluorescence center-of-mass shift (tetramer to dimer)
Sequence (P00511 2-780): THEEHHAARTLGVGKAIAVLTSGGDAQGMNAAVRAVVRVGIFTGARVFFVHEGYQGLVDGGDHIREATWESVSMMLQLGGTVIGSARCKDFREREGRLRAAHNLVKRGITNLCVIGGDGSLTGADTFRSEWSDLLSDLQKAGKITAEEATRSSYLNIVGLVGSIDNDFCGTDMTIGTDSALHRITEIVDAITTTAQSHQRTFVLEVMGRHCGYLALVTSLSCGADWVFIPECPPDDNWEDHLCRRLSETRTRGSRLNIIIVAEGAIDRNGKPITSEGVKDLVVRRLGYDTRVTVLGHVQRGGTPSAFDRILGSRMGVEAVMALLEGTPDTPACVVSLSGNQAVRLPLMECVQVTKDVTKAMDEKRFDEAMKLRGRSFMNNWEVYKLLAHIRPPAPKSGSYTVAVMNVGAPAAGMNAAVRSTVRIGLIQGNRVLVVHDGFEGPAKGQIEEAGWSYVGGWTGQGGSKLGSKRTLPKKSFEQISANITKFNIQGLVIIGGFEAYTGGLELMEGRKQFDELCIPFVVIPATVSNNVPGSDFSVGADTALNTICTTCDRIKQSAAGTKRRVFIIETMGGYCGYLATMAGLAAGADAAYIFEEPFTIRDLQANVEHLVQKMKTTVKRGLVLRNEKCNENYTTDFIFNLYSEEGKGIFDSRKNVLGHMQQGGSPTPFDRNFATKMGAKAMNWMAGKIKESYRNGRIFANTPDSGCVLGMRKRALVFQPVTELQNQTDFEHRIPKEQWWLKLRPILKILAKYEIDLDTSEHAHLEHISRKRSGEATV
property.label: pIC50
# pIC50 = -log10(concentration in molar units)

Request: Given the entry O=C(O[C@@H]1Cc2c(O)cc(O)cc2O[C@@H]1c1cc(O)c(O)c(O)c1)c1cc(O)c(O)c(O)c1 [EGCG, epigallocatechin-3-gallate] , report its measured pIC50.
Result: 3.91

Every entry's value here was drawn from paper PMC4923908.
